Assay: Antioxidant activity assessed as inhibition of linoleic acid peroxidation at 75 ug by FTC method
Format: functional
Reported inhibition is given for each of the following compounds.
# output: bare number, implied unit %

{"compound": "O=C1CCC(=O)N1CNc1ccccc1", "reported.property": "inhibition", "measured.value": 16}

What value of inhibition has been reported for the following compound? O=C1CCC(=O)N1C(Nc1ccccn1)c1ccccc1 (stereo not drawn) 18

Next entry: O=C1O[C@H]([C@@H](O)CO)C(O)=C1O 31.2

Next entry: O=C(NC(c1ccccc1)c1cc2ccccc2cc1O)NC(c1ccccc1)c1cc2ccccc2cc1O (stereo not drawn) 18.3

Next entry: O=C1c2ccccc2C(=O)N1CNc1ccccc1 15.6

Next entry: Oc1cc2ccccc2cc1Cn1cccc1 16.2

Next entry: O=C1CCC(=O)N1CNc1ccccn1 19

Next entry: O=C1CCC(=O)N1C(Nc1ccccc1)c1ccccc1 (stereo not drawn) 19
